# maps each entry to its Cmax
TEST_SUMMARY: Single and repeat dose plasma and tissue pharmacokinetics in male C57BL/6 mice
Format: in vivo, mouse
CONDITION_SUMMARY: male, C57BL/6, mouse, brain, po, 20 mg/kg/day, mouse brain; 20 mg/kg/day PO; single dose (QD × 1)
Just the number in ng/g, nothing appended.

## Task Given the molecule CC(C)(CCCCc1ccc(CCCCC(C)(C)C(=O)O)cc1)C(=O)O , what is its reported Cmax?
## Result 492

## Task Quick one: Cmax of CC(C)(CCCCc1cccc(CCCCC(C)(C)C(=O)O)c1)C(=O)O ?
## Result 362

----------
STUDY_SYSTEM: human ACLY (Homo sapiens (Human))
Sequence (P53396 whole entry): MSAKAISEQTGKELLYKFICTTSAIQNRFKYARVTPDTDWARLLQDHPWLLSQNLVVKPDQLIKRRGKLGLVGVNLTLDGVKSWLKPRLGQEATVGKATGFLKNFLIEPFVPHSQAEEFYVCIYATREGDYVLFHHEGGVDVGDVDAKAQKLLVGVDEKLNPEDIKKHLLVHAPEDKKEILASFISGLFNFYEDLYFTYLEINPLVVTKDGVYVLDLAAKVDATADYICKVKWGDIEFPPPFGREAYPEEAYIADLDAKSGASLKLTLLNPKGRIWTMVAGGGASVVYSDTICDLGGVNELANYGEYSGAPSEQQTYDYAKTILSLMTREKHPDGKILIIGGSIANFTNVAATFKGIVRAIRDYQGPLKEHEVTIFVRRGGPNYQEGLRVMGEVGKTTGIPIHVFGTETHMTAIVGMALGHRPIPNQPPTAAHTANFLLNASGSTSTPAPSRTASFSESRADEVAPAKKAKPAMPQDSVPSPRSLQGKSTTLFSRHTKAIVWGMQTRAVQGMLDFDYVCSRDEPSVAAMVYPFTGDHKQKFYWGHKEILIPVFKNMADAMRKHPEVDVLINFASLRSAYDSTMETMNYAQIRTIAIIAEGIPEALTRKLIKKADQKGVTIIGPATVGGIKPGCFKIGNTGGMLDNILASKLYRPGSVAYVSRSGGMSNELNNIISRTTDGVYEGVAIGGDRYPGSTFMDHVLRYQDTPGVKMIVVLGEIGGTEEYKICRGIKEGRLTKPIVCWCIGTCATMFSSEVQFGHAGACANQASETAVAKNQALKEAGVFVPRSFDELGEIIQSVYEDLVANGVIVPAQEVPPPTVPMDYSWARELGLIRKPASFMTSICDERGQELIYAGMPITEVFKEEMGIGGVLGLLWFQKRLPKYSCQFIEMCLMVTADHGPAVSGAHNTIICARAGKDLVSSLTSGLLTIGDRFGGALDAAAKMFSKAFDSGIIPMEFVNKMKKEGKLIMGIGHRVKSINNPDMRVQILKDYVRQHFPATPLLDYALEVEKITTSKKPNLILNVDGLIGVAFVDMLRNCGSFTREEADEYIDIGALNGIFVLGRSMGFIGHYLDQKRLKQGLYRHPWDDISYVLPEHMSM
TEST_SUMMARY: ATP-citrate lyase (ACLY) enzymatic assay (ADP-Glo)
Assay type: biochemical
CONDITION_SUMMARY: recombinant human ACLY; 10 concentrations from 300 μM; Runs 1-3; read-out: Compound IC50 (M) ACLY
ASSAY_METRIC: IC50 (M)
Please give a number only; it is taken to be in M.

## Task Name the recorded IC50 for COc1ccc(-c2ccccc2)cc1NS(=O)(=O)c1cc(Cl)cc(Cl)c1O [BMS-303141, reference compound] .
## Result 4.45e-07

----------
TEST_SUMMARY: Single and repeat dose plasma and tissue pharmacokinetics in male C57BL/6 mice
Format: in vivo, mouse
CONDITION_SUMMARY: male, C57BL/6, mouse, plasma, po, 20 mg/kg, mouse plasma; QD × 4; value in parentheses: timepoint 0.25 h samples after reanalysis
Protocol: Materials and methods. The study involved two arms: a single dose pharmacokinetic study and a 4-day repeated-dose pharmacokinetic study. For each arm, 56 inbred male C57BL/6 mice, aged at 6-7 week, were included. All animals were purchased from Charles River Lab (CRL, MA). […] All three samples from each mouse were analyzed for either Compound I-1 or Compound I-32 contents by Integrated Analytical Solutions (Berkeley, CA) and the results were used for the generation of the pharmacokinetic graphs. […]
ASSAY_METRIC: Tmax (min)
I only need the number, in min, no unit after it.

## Task # Tmax lookup, item CC(C)(CCCCc1ccc(CCCCC(C)(C)C(=O)O)cc1)C(=O)O
## Result 15

----------
TEST_SUMMARY: Single and repeat dose plasma and tissue pharmacokinetics in male C57BL/6 mice
Type: in vivo, mouse
CONDITION_SUMMARY: male, C57BL/6, mouse, plasma, po, 20 mg/kg, mouse plasma; QD × 1; value in parentheses: timepoint 0.25 h samples after reanalysis
ASSAY_METRIC: Tmax (min)
Output spec: scalar in min, unitless text.

## Task Given the entry CC(C)(CCCCc1ccc(CCCCC(C)(C)C(=O)O)cc1)C(=O)O , report its measured Tmax.
## Result 15

----------
TEST_SUMMARY: Single and repeat dose plasma and tissue pharmacokinetics in male C57BL/6 mice
Type: in vivo, mouse
CONDITION_SUMMARY: male, C57BL/6, mouse, liver, po, 20 mg/kg/day, mouse liver; 20 mg/kg/day PO; single dose (QD × 1)
ASSAY_METRIC: Cmax (ng/g)
Response body: numeric value in ng/g, unit text excluded.

1. CC(C)(CCCCc1cccc(CCCCC(C)(C)C(=O)O)c1)C(=O)O [Compound I-32] :: 25100

Consider the additional compound presented here.
## Task Item CC(C)(CCCCc1ccc(CCCCC(C)(C)C(=O)O)cc1)C(=O)O [Compound I-1] has what recorded Cmax?
## Result 27000

----------
TEST_SUMMARY: Single and repeat dose plasma and tissue pharmacokinetics in male C57BL/6 mice
Type: in vivo, mouse
CONDITION_SUMMARY: male, C57BL/6, mouse, plasma, po, 20 mg/kg/day, mouse plasma; 20 mg/kg/day PO; single dose (QD × 1)
ASSAY_METRIC: Tmax (h)
Answer in h, number only, no unit symbol.

1. CC(C)(CCCCc1cccc(CCCCC(C)(C)C(=O)O)c1)C(=O)O :: 2

// switching to the query molecule
## Task Quick check: Tmax of CC(C)(CCCCc1ccc(CCCCC(C)(C)C(=O)O)cc1)C(=O)O ?
## Result 0.25

----------
TEST_SUMMARY: Single and repeat dose plasma and tissue pharmacokinetics in male C57BL/6 mice
Format: in vivo, mouse
CONDITION_SUMMARY: male, C57BL/6, mouse, liver, po, 20 mg/kg, mouse liver; QD × 1; value in parentheses: timepoint 0.25 h samples after reanalysis
ASSAY_METRIC: Cmax (ng/g)
// note: answer is a bare numeric in ng/g

## Task Look at this compound and give its reported Cmax. CC(C)(CCCCc1ccc(CCCCC(C)(C)C(=O)O)cc1)C(=O)O
## Result 21500

----------
TEST_SUMMARY: Single and repeat dose plasma and tissue pharmacokinetics in male C57BL/6 mice
Format: in vivo, mouse
CONDITION_SUMMARY: male, C57BL/6, mouse, liver, po, 20 mg/kg, mouse liver; QD × 4; value in parentheses: timepoint 0.25 h samples after reanalysis
ASSAY_METRIC: Tmax
A complete answer gives the number and then names the unit.

## Task Report Tmax for CC(C)(CCCCc1ccc(CCCCC(C)(C)C(=O)O)cc1)C(=O)O please.
## Result 15 min

----------
TEST_SUMMARY: Single and repeat dose plasma and tissue pharmacokinetics in male C57BL/6 mice
Assay type: in vivo, mouse
CONDITION_SUMMARY: male, C57BL/6, mouse, plasma, po, 20 mg/kg, mouse plasma; QD × 4; value in parentheses: timepoint 0.25 h samples after reanalysis
ASSAY_METRIC: AUC(0-t) (µg·h/mL)
Expressed in µg·h/mL, but write only the number.

## Task Dear colleague, I am looking for the recorded AUC(0-t) of the following compound: CC(C)(CCCCc1ccc(CCCCC(C)(C)C(=O)O)cc1)C(=O)O
## Result 1090

----------
TEST_SUMMARY: Single and repeat dose plasma and tissue pharmacokinetics in male C57BL/6 mice
Assay type: in vivo, mouse
CONDITION_SUMMARY: male, C57BL/6, mouse, plasma, po, 20 mg/kg, mouse plasma; QD × 4; value in parentheses: timepoint 0.25 h samples after reanalysis
ASSAY_METRIC: Cmax (µg/mL)
Quick reminder: number only, in µg/mL, skip the unit.

## Task Looking for the measured Cmax of CC(C)(CCCCc1ccc(CCCCC(C)(C)C(=O)O)cc1)C(=O)O [Compound I-1] , can you help?
## Result 76.1

----------
Listed below: Cmax values for each entry.
TEST_SUMMARY: Toxicokinetics in female rats (4-day oral gavage study, Day 1)
Format: in vivo
CONDITION_SUMMARY: Wistar Han (RccHan:WIST); female rat plasma; 100 mg/kg/day oral gavage; Day 1
Method: Dosing Solutions. The dosing solutions of Compound I-1 or Compound I-32 were prepared as follows: a 60-mg/mL stock solution was prepared for Compound I-1 or Compound I-32 by dissolving Compound I-1 or Compound I-32 in DI water. […] Blood was collected into tubes containing potassium (K2) EDTA as the anticoagulant. […] Plasma was harvested into two approximately equal aliquots and stored on dry ice until placed in a freezer, set to maintain −60 to −80° C., until analyzed. […]
Use µg/mL as the unit, but write only the number.

1) CC(C)(CCCCc1cccc(CCCCC(C)(C)C(=O)O)c1)C(=O)O :: 142

## Task What does the record list as Cmax for CC(C)(CCCCc1ccc(CCCCC(C)(C)C(=O)O)cc1)C(=O)O ?
## Result 415

----------
TEST_SUMMARY: Single and repeat dose plasma and tissue pharmacokinetics in male C57BL/6 mice
Type: in vivo, mouse
CONDITION_SUMMARY: male, C57BL/6, mouse, brain, po, 20 mg/kg, mouse brain; QD × 1; value in parentheses marked * (reanalysis per footnote of Tables 8-9)
ASSAY_METRIC: Tmax
Field: value (include unit after the number)

## Task State the recorded Tmax for this entry: CC(C)(CCCCc1ccc(CCCCC(C)(C)C(=O)O)cc1)C(=O)O
## Result 15 min

----------
TEST_SUMMARY: Single and repeat dose plasma and tissue pharmacokinetics in male C57BL/6 mice
Format: in vivo, mouse
CONDITION_SUMMARY: male, C57BL/6, mouse, brain, po, 20 mg/kg/day, mouse brain; 20 mg/kg/day PO; 4 consecutive days (QD × 4)
Parameter: Tmax. Scope: all listed entries.
Write down the numeric answer in h and omit the unit.

## Task // lookup Tmax for CC(C)(CCCCc1ccc(CCCCC(C)(C)C(=O)O)cc1)C(=O)O
## Result 4

## Task Consider the molecule shown here: CC(C)(CCCCc1cccc(CCCCC(C)(C)C(=O)O)c1)C(=O)O What is its recorded Tmax?
## Result 4

----------
Entries and their Tmax values follow.
TEST_SUMMARY: Single and repeat dose plasma and tissue pharmacokinetics in male C57BL/6 mice
Type: in vivo, mouse
CONDITION_SUMMARY: male, C57BL/6, mouse, liver, po, 20 mg/kg/day, mouse liver; 20 mg/kg/day PO; single dose (QD × 1)
Quick reminder: number only, in h, skip the unit.

1. CC(C)(CCCCc1ccc(CCCCC(C)(C)C(=O)O)cc1)C(=O)O [Compound I-1] :: 0.25

Here is the next item to consider.
## Task Name the recorded Tmax for CC(C)(CCCCc1cccc(CCCCC(C)(C)C(=O)O)c1)C(=O)O [Compound I-32] .
## Result 2
